Catalogue of compounds with associated pEC50
target: OR1A1 (Homo sapiens); assay: Dual-Glo luciferase reporter gene assay, OR1A1 in Hana3A cells; type: cell-based; parameters: The open reading frames of ORs were amplified using Phusion polymerase; Rho-tag (first 20 amino acids of human rhodopsin) (N); expressed in transfected cells; host or cells: Hana3A cells (derived from HEK293T), pCI vector; co-transfected with human RTP1S, M3 receptor, CRE-Luc and SV40-RL; conditions: OR1A1; 95% CI
Sequence (Q9P1Q5 whole entry): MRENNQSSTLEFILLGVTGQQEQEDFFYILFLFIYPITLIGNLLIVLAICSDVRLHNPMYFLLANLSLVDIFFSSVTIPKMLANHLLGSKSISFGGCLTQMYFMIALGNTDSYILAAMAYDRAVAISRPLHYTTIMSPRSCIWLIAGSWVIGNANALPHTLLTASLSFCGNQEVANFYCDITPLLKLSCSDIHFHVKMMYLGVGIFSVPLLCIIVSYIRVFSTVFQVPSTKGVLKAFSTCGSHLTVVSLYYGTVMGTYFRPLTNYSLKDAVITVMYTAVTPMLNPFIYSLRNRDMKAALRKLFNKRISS
pEC50: −log10 of the molar value.

Look up pEC50 of COC(=O)Cc1ccccc1C [Methyl 2-(2-methylphenyl)acetate] and report it. 4.60 to 4.91

***
Look up pEC50 of CCOC(=O)Cc1cccc(Br)c1 [Ethyl 2-(3-bromophenyl)acetate] and report it. 4.61 to 4.94
